# Target: T1, human CD28 (human, UniProt P10747 19-220, On cells CD28 is a disulfide linked homodimer and a glycoprotein; one copy of the chain is given.)
# T1 construct: also called T-cell specific surface glycoprotein CD28
# T1 sequence (P10747 19-220 limits assumed): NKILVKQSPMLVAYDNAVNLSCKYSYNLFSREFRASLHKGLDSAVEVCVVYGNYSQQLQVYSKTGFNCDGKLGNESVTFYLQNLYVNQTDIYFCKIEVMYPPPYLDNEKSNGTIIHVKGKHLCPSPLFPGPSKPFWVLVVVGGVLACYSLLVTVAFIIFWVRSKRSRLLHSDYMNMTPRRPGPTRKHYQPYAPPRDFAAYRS
# Experimental protocol: flow cytometry, PE-conjugated antibody on 4% PFA-fixed human peripheral blood cells

# Binder, S/N on fixed cells
measured = [
    ("exemplary anti-CD28 antibody AB2 (antibody, V domains shown, Mouse hybridoma monoclonal antibody; also called antibody 2; clone 2) VH: QVQLQQPGSELMRPGASVKLSCKASGYTFTSYWMHWVKQRHGQGLEWIGNIYPGSGRTIYDEKFKSKATLTVDTSSSTAYMHLSSLTSEDSAVFYCTRSHYGSSFDAMDYWGQGTSVTVSS VL: DIQVNQSPSSLSASLGDTITITCHASQNIYVWLNWYQQKPGNIPKLLIYKASNLHTGVPSRFSGSGSGTGFTLTISSLQPEDIATYYCQQGQSYPWTFGGGTKLEIK", 50.1),
    ("exemplary anti-CD28 antibody AB1 (antibody, V domains shown, Mouse hybridoma monoclonal antibody; also called antibody 1; clone 1) VH: QVHLQQSATELARPGASVKMSCKASGYTFTSYTMHWVKQRPGQGLEWIGYIDPGSGYSEFNHKFKDKSTLTADKSSSTAYMQLISLTSEDSAVYYCARRQDNSGYDSFDYWGQGTTLTVSS VL: DIQMTQSPASLSVSVGETVTITCRTSENIYSNLAWYQQKQGKSPQLLVYAATNLADGVSSRFSGSGSGIQYSLKINSLQSEDFGSYYCQHFWGIPWTFGGGTKLEIK", 61.6),
    ("exemplary anti-CD28 antibody AB8 (antibody, V domains shown, Mouse hybridoma monoclonal antibody; Conjugated to PE in the staining assays; also called antibody 8; clone 8) VH: EVKLVESGGGLVQPGGSLKLSCAASGFTFSSYTMSWVRQTPEKRLEWVAYISNGGGTTYYPDTVKGRFTISRDNAKNTLYLQMSSLKSEDTAVYYCARHRPYDYDVLDYWGQGTTLTVSS VL: DIVMTQSQKFMSTSVGDRVSITCKASQIVGTDVAWYQQKPGQSPKILIFSASNRYTGVPDRFTGSGSGTDFTLTISNMQSEDLADYFCHQYSRYPYTFGGGTKLEIK", 24.6),
    ("exemplary anti-CD28 antibody AB5 (antibody, V domains shown, Mouse hybridoma monoclonal antibody; Conjugated to PE in the staining assays; also called antibody 5; clone 5) VH: EVQLQQSGPELEKPGASVKMSCKASGYSFTDYNMNWVKQSNGKSLEWIGIIDPYYGATTYNQRFKGKATLTVDKSSSTAYMQLKSLTSEDSAVYYCARFGFYGAMDYWGQGISVTVSS VL: DVVVTQTPLSLPVSFGDQVSISCRSSQSLANSFGNTYLSWYLHKPGQSPQLLIYGISNRFSGVPDRFSGSGSGTDFTLKISTIKPEDLGVYYCLQGTHQPFTFGSGTTLELK", 63.3),
]
